Quick reference: Kd (parent)/Kd (mut) of the listed items.
Target: T1, c-erbB-2 ECD with a Ser-Gly-His6 C-terminal fusion (UniProt P04626 23-652)
T1 construct: extracellular domain; Expressed from CHO cells, IMAC purified; coupled to a CM5 chip, coated on plates, or biotinylated with NHS-LC-biotin; also called c-erbB-2 extracellular domain; biotinylated c-erbB-2 ECD
Experiment: SPR BIAcore

binder	Kd (parent)/Kd (mut)
C6-B47D6 (scFv, Combined B47 and D6 mutations on C6ML3-9) scFv: QVQLLQSGAELKKPGESLKISCKGSGYSFTSYWIAWVRQMPGKGLEYMGLIYPGDSDTKYSPSFQGQVTISVDKSVSTAYLQWSSLKPSDSAVYFCARHDVGYCTDRSCAKWPEWMYPWGQGTLVTVSSGGGGSGGGGSGGGGSQSVLTQPPSVSAAPGQKVTISCSGSSSNIGNNYVSWYQQLPGTAPKLLIYGHTNRPAGVPDRFSGSKSGTSASLAISGFRSEDEADYYCASWDYTLSGWVFGGGTKLTVLG	2.2
C6-B47D1 (scFv, Combined B47 and D1 mutations on C6ML3-9) scFv: QVQLLQSGAELKKPGESLKISCKGSGYSFTSYWIAWVRQMPGKGLEYMGLIYPGDSDTKYSPSFQGQVTISVDKSVSTAYLQWSSLKPSDSAVYFCARHDVGYCTDRSCAKWPEWLHVWGQGTLVTVSSGGGGSGGGGSGGGGSQSVLTQPPSVSAAPGQKVTISCSGSSSNIGNNYVSWYQQLPGTAPKLLIYGHTNRPAGVPDRFSGSKSGTSASLAISGFRSEDEADYYCASWDYTLSGWVFGGGTKLTVLG	1.6

Ref: patent US6512097
